# target-under-test: T1, USP38, Q8NB14
# T1 chain: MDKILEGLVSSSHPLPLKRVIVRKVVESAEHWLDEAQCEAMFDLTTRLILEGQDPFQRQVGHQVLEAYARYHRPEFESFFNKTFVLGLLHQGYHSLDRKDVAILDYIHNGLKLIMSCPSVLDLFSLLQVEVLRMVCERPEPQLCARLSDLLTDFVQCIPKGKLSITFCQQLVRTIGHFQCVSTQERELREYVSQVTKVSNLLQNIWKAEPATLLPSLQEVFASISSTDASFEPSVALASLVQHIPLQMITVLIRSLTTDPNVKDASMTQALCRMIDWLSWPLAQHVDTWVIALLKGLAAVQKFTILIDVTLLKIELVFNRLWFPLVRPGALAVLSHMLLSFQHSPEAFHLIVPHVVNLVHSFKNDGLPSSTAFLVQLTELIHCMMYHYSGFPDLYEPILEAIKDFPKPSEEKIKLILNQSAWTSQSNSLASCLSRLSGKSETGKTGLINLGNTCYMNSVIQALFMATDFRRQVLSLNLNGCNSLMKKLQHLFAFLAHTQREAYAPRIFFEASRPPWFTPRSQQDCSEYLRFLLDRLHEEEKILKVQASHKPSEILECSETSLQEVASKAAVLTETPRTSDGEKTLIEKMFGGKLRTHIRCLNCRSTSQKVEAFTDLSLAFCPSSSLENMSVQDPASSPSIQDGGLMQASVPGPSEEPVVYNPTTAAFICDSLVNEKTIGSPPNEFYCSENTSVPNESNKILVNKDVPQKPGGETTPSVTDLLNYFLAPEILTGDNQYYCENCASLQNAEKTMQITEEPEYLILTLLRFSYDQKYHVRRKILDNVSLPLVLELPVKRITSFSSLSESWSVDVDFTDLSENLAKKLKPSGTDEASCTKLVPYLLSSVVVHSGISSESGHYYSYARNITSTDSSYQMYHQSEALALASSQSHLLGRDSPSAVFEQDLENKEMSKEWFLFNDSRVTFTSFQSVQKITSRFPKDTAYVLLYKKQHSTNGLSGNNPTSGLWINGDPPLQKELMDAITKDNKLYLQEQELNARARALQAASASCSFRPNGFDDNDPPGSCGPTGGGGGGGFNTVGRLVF
# test-protocol: median log2 fold change of GCK-ALFA target abundance (FLAG IP / Myc IP barcode read proportion) (log2 ratio); each designed protein is fused to an ALFA-tag nanobody in HEK293 cells to bring the named protein to FLAG-tagged glucokinase (GCK); Myc marks an untargeted standard; higher = target protein stabilised (more abundant)
# study-conditions: target protein: 3xFLAG-MCP-GCK-ALFA reporter; HEK293 landing pad (RPLP)
Reported median log2 fold change values follow for various binders
Just the number.

binder: usp_38_diff_out_16_109_175 (protein) SAQAEADRAFAEAAIANFRSLAADARARLARLEARGASPEVLAAYADLAATATAAAAALEAALAAGEDLRAAANAAWDAVGAAAARAARLLQEEVRRRSA
recorded-measurement: -0.756
--
binder: usp_38_diff_out_24_27_503 (protein) EEERKEKIERLKKLLEEILKLLEESRTGDISVRIRASSEIDELAEEIRKILEELGNEEGLELLTEFETQVYAVLSRSPNWEEHFEKAKELAEKILELAKK
recorded-measurement: -0.574
--
binder: usp_38_diff_out_16_109_170 (protein) SQDEEADRLLAEATIENLKALAEEAKERLKKLEAKGASAEVLKAYKDLAETAKKAAEEIKEALKKGENIRETTDKKWDEVGKAAAAASEARRAEARARSA
recorded-measurement: 0.177

Find the recorded median log2 fold change belonging to usp_38_diff_out_18_28_369 (protein) SAAERAALEAELAALTARLDALIDEATAEATRRLTEHPDDEEVWELVDELFDALGAAAAALREARELLREGGPLAEVQAALDRARAALARAEALLAELKA and report it.
0.292
